Recorded MIC by entry
Test system: Staphylococcus aureus
protocolText: Antibacterial activity against gentamicin-resistant Staphylococcus aureus ATCC 33592 after 24 hrs by spectrophotometric analysis
Type: functional, organism-based
particulars: Staphylococcus aureus, ATCC 33592, 24 h
Report only the number, with the unit µg/mL understood.

Worked examples, 2 molecules total:
In [3]: df
Out[3]:
                                   molecule           testedsystem  unitabbrev  assayresult
0  CC(C)(C)n1nnnc1C(c1ccccc1)N1CCN(c2cc3c(cc2F)c(=O)c(C(=O)O)cn3Cc2ccc(C(F)(F)F)cc2)CC1 (centres undefined)  Staphylococcus aureus       µg/mL           50
1  CCn1cc(C(=O)O)c(=O)c2cc(F)c(N3CCN(C(c4ccccc4)c4nnnn4C(C)(C)C)CC3)cc21 (centres undefined)  Staphylococcus aureus       µg/mL         0.38

Task: Using the record for CCn1cc(C(=O)O)c(=O)c2cc(F)c(N3CCN(C(c4ccc(F)cc4)c4nnnn4C4CCCCC4)CC3)cc21 (centres undefined) , state its measured MIC.
Output: 50
